Biological target: Inhibitor of nuclear factor kappa-B kinase subunit beta (Homo sapiens)
Sequence (whole entry): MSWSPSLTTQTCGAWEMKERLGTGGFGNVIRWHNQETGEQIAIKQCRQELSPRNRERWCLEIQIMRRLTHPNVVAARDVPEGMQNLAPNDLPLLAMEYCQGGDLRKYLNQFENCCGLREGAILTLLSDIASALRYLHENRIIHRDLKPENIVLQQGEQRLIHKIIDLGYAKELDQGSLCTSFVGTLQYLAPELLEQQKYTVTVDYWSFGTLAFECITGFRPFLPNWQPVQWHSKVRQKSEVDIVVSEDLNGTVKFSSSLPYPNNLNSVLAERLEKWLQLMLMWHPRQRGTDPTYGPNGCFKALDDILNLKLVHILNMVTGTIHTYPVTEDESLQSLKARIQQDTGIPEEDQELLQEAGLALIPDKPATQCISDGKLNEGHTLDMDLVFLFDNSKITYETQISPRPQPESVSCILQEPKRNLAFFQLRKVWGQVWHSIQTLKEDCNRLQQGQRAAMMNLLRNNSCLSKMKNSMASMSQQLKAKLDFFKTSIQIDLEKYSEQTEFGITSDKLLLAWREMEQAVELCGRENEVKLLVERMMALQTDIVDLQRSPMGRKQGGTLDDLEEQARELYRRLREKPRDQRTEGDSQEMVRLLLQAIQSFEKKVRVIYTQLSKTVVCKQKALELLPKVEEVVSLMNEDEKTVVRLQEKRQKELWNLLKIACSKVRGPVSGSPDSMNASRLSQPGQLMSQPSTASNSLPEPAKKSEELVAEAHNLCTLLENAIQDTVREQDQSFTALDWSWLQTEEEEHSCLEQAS
Experiment: Inhibition of IKKbeta (unknown origin) transfected in human HeLa cells assessed as inhibition of TPA-induced NF-kappaB activation at 10 uM pre-incubated with compound for 1 hr followed by TPA addition after 8 hrs by luciferase reporter gene assay
Assay type: cell-based
Each item that follows carries a reported inhibition.

chemical_string	inhibition, %
CN1CCN(CCCOc2ccc(N3C(=O)/C(=C/c4ccc(Oc5ccc(Cl)cc5)cc4)SC3=S)cc2)CC1	66.6
CN1CCN(CCCOc2ccc(N3C(=O)/C(=C/c4ccc(Oc5ccc(C#N)cc5)cc4)SC3=S)cc2)CC1	55
CC(=O)Nc1ccc(Oc2ccc(/C=C3\SC(=S)N(c4ccc(OCCCN5CCN(C)CC5)cc4)C3=O)cc2)cc1	48
CN1CCN(CCCOc2ccc(N3C(=O)/C(=C/c4ccc(Oc5ccc(S(C)(=O)=O)cc5)cc4)SC3=S)cc2)CC1	60.9
